Cited source: patent US12338220B2

TARGET_DESC: CMV-polymerase (Human cytomegalovirus (strain AD169) (HHV-5) (Human herpesvirus 5), UniProt P08546)
ASSAY_INFO: biochemical
EXPERIMENTAL_PARAMETERS: read-out: CMV-polymerase Biochemical IC50
The following compounds are shown together with reported IC50 values.
State the answer as a number, implicitly in nM.

Check out these entries, answers already filled in.
- CHEMICAL_SMILES: "Cn1nc(C(=O)NCc2ccc(Cl)cc2)c2c1C(=O)N(CC1(S(=O)(=O)C(C)(C)[C@H](O)CO)CC1)CC2"
  RESULT_UNITS: "nM"
  IC50: 1
- CHEMICAL_SMILES: "COc1cccc(NS(=O)(=O)C2(CN3CCc4c(C(=O)NCc5ccc(C#N)cc5)nn(C)c4C3=O)CC2)n1"
  RESULT_UNITS: "nM"
  IC50: 2

GET /values?readout=IC50&item= `Cn1nc(C(=O)NCc2ccc(C#N)cc2)c2c1C(=O)N(CC1(S(=O)(=O)C(C)(C)CN3CC4(COC4)C3)CC1)CC2` 2
